# half-life listing for each entry below
# test_protocol: physchem
# reported_conditions: buffer, pH 5
Value expressed in min; do not type the unit.

CC(=O)NCCC[Si](C)(C)O[Si](C)(C)CSc1ncc(Cn2cc(-c3ccccc3)nn2)cn1: 20

// half-life value for CC(=O)NCCC[Si](C)(C)O[Si](C)(C)CCCn1cc(-c2ccccc2)nn1 : 240

// half-life value for CC(=O)NCCC[Si](C)(C)O[Si](C)(C)CSc1ncc(Cn2cc(-c3ccc(COCC(COCc4ccc(-c5cn(Cc6cnc(SC[Si](C)(C)O[Si](C)(C)CCCNC(C)=O)nc6)nn5)cc4)(COCc4ccc(-c5cn(Cc6cnc(SC[Si](C)(C)O[Si](C)(C)CCCNC(C)=O)nc6)nn5)cc4)NC(=O)OC(C)(C)C)cc3)nn2)cn1 : 1080

// half-life value for C[Si](C)(C)O[Si](C)(C)CSc1ncccn1 : 5

// half-life value for Cc1ccnc(SC[Si](C)(C)O[Si](C)(C)C)n1 : 12

// half-life value for C[Si](C)(C)O[Si](C)(C)CSc1cnccn1 : 30
